biological target: human recombinant mGluR5 (Homo sapiens, UniProt P41594); assay: positive modulation of mGluR5, calcium based FLIPR assay; details: HEK 293 cell line expressing human recombinant mGluR5; EC50 of the modulation from peak Ca fluorescence signal after glutamate at approx. 5% basal stimulation
Sequence (P41594 21-1212): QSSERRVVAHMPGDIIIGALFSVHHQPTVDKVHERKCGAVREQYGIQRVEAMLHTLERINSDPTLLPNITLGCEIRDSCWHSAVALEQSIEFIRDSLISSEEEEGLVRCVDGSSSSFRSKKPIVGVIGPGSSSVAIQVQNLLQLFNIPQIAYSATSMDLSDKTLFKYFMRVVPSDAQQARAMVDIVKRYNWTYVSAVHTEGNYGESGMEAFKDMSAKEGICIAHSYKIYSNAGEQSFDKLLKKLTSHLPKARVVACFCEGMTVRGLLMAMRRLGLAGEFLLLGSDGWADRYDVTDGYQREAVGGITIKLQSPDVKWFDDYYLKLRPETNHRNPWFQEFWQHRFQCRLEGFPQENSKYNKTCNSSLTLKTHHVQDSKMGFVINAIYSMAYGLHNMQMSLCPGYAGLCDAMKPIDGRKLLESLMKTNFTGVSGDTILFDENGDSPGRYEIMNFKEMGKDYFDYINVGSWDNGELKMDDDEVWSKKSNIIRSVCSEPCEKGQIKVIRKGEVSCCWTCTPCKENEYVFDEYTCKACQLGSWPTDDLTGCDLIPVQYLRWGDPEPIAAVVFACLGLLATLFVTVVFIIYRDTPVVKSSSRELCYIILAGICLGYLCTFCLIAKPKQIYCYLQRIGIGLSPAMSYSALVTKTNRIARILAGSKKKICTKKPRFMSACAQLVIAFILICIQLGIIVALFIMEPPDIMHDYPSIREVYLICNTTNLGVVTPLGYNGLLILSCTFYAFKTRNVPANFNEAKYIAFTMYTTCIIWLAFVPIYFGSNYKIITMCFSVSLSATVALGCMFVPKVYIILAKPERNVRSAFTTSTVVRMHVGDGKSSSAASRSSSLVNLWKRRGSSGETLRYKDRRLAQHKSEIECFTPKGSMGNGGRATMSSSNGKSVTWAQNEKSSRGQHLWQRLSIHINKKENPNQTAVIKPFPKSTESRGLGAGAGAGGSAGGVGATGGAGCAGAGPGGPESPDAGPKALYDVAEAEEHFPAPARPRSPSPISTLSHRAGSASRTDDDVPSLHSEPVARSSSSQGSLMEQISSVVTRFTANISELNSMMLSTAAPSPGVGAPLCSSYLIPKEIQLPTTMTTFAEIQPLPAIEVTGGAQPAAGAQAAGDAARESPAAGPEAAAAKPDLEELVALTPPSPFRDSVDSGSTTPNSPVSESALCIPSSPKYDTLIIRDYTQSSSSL
pEC50: −log10 of the molar value.
outcome_measure: pEC50

I: Cc1nc2c(s1)CN(C(=O)Cn1nc(-c3ccc(F)cn3)cc1-c1ccccc1)C2
II: Cc1ccc(-c2cc(-c3ccccc3)n(CC(=O)N3CCc4nc(N)sc4CC3)n2)cc1C
In the pair I and II , the larger recorded pEC50 belongs to which? Field: selected label. Fill in the label of the entry you choose.
II
(II: 7.31, I: 6.04)

I: Cc1nc2c(s1)CN(C(=O)Cn1nc(-c3cc(C)c(F)cn3)cc1-c1ccccc1)C2
II: Cc1nc2c(s1)CN(C(=O)Cn1nc(-c3ccccc3)cc1-c1ccccc1)C2 [Example 7.01.038]
III: O=C(Cn1nc(-c2ccccc2)cc1-c1ccccc1)N1Cc2nc(-c3ccccc3)sc2C1
IV: COc1ccc2c(n1)CCN(C(=O)Cn1nc(-c3ccc(F)c(C)c3)cc1-c1ccccc1)CC2
List these items ordered by pEC50, big to small. Answer format: list of labels, ordered as asked.
IV, I, II, III

I: Cc1cc(-c2cc(-c3ccccc3)n(CC(=O)N3CCc4nc(N)oc4CC3)n2)ccc1F
II: Cc1cnc(C2=CCN(C(=O)Cn3nc(-c4cccc(C#N)c4)cc3-c3ccccc3)CC2)o1
III: CCc1cc(-c2ccc(F)c(C)c2)nn1CC(=O)N1CCc2ccsc2C1
IV: O=C(Cn1nc(-c2ccccc2)cc1-c1ccccc1)N1CCN(c2nnc(C(F)(F)F)s2)CC1 [Example 7.01.037]
V: CCc1cc(-c2ccc(F)c(C)c2)nn1CC(=O)N1CC=C(c2ncc(C)s2)CC1
Could you please order the items by pEC50, going from the lowest number to the highest? Answer format: list of labels, ordered as asked.
III, IV, I, V, II
